Attribution: patent US20230287217A1

assay: UV-Vis absorption and fluorescence spectroscopy (spectral properties in aqueous media / PBS buffer); assay type: physicochemical; settings: aqueous media
Lab note: anything with Stokes Shift (nm) below 20 nm is marked met; values at 20 nm or higher are marked not met.

Req: A record lists CN(C)c1ccc2c(-c3cc(C(=O)NCc4ccc(COc5nc(N)nc6[nH]cnc56)cc4)ccc3C(=O)[O-])c3ccc(=[N+](C)C)cc-3oc2c1 [TMRSNAP] . Is its Stokes Shift (nm) below 20 nm?
Resp: not met

###

Assign Stokes Shift (nm) to each entry below.
assay: UV-Vis absorption and fluorescence spectroscopy (spectral properties in aqueous media / PBS buffer); type: physicochemical; settings: aqueous media
Respond with a number, then the unit of measure.

Before answering, review these 5 worked examples.
>  <smi>
Cc1ccccc1-c1c2cc/c(=[N+](/C)CCCS(=O)(=O)[O-])cc-2oc2cc(N(C)C)ccc12

>  <Stokes Shift (nm)>
23 nm

$$$$
>  <smi>
Cc1cc(C(=O)NCCOCCOCCCCCCCl)ccc1-c1c2cc/c(=[N+](/C)CCCS(=O)(=O)[O-])cc-2oc2cc(N(C)C)ccc12

>  <Stokes Shift (nm)>
25 nm

$$$$
>  <smi>
CN(C)c1ccc2c(-c3cc(C(=O)NCCCn4cc(-c5cccc(Nc6ncnc7ccccc67)c5)nn4)ccc3C(=O)[O-])c3ccc(=[N+](C)C)cc-3oc2c1

>  <Stokes Shift (nm)>
26 nm

$$$$
>  <smi>
Cc1cc(C(=O)NCCCn2cc(-c3cccc(Nc4ncnc5ccccc45)c3)nn2)ccc1-c1c2cc/c(=[N+](/C)CCCS(=O)(=O)[O-])cc-2oc2cc(N(C)C)ccc12

>  <Stokes Shift (nm)>
25 nm

$$$$
>  <smi>
CN(C)c1ccc2c(-c3ccccc3C(=O)[O-])c3ccc(=[N+](C)C)cc-3oc2c1

>  <Stokes Shift (nm)>
25 nm

$$$$

Req: Returns the measured Stokes Shift (nm) for the input compound. Input: CN(C)c1ccc2c(c1)[Si](C)(C)C1=CC(=[N+](C)C)C=CC1=C2c1cc(C(=O)O)ccc1C(=O)[O-]
Resp: 22 nm
